Item-by-item account of EC50 (nM) in the Presence of 1 µg/mL hIL-18BP-hFc, hIL-18 reporter assay
Biological target: T1, hIL-18BP-hFc (human, UniProt O95998 31-194, limits assumed)
T1 sequence (looked up): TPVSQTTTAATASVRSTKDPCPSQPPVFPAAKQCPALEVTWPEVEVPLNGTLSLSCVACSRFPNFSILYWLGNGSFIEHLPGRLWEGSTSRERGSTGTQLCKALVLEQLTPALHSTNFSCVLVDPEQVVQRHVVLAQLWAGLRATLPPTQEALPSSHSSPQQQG
Assay: cell-based or functional assay
Unit nM implied. Number only.

[[record]]
binder = "IL-18 variant polypeptide M25 (ligand) YFPKLRSKLSVIRNLNDQVLFIDQGNRPLFEDMTDSDCRDNAPRTIFIISMYKLSTTRGMAVTISVKCEKISTLSCENKIISFKEMNPPDRIKDTKSDIIFFQRSVPGHDNKMQFESSSYEGYFLACEKERDLFKLILKKEDELGDRSIMFTVQNED"
reading = 1.15

[[record]]
binder = "IL-18 variant polypeptide M19 (ligand) YFPKLKSKLSVIRNLNDQVLFIDQGNRPLFEDMTDSDCRDNAPRTIFIISMYKHSEQRGMAVTISVKCEKISTLSCENKIISFKEMNPPDAIKDTKSDIIFFQRSVPGHDNKMQFESSSYEGYFLACEKERDLFKLILKKEDELGDRSIMFTVQNED"
reading = 0.31

[[record]]
binder = "IL-18 variant polypeptide LM2 (ligand) YFPKLRSKLSVIRNLNDQVLFIDQGNRPLFEDMTDSDCRDNAPRTIFIISMYKLSGSRGMAVTISVKCEKISTLSCENKIISFKEMNPPDVIKDTKSDIIFFQRSVPGHDNKMQFESSSYEGYFLACEKERDLFKLILKKEDELGDRSIMFTVQNED"
reading = 0.055


# ---- query binder ----
Challenge: Look up EC50 (nM) in the Presence of 1 µg/mL hIL-18BP-hFc, hIL-18 reporter assay of IL-18 variant polypeptide WM10 (ligand) YFPKLKSKLSVIRNLNDQVLFIDQGNRPLFEDMTDSDCRDNAPRTIFIISMYKDSQPRGMAVTISVKCEKISTLSCENKIISFKEMNPPDSIKDTKSDIIFFQRSVPGHDNKMQFESSSYEGYFLACEKERDLFKLILKKEDELGDRSIMFTVQNED and report it.
Response given: 15.6
